assay: Thermal stability measurement (TG/DTA weight reduction temperature); details: TG/DTA, air 200 mL/min, 10° C./min, 30° C. to 600° C.
METRIC NAME: Weight reduction temperature 5% (°C)
Give the value in °C but do not write °C after it.

CCCCCCCCCCCCCCCCCCn1cc[n+](CCCCC[n+]2ccn(CCCCCCCCCCCCCCCCCC)c2)c1.O=S(=O)([N-]S(=O)(=O)C(F)(F)C(F)(F)C(F)(F)C(F)(F)F)C(F)(F)C(F)(F)C(F)(F)C(F)(F)F.O=S(=O)([N-]S(=O)(=O)C(F)(F)C(F)(F)C(F)(F)C(F)(F)F)C(F)(F)C(F)(F)C(F)(F)C(F)(F)F : 360.1
CCCCCCCCCCCCCCCCCCC1CCCCN2CCCN=C12.O=S1(=O)NS(=O)(=O)C(F)(F)C(F)(F)C1(F)F (centres unmarked) [Comp. Ex. 1A, reference compound] : 346.3
CCCCCCCCCCCCCCCCCCN1CCCC1.O=S(=O)(NS(=O)(=O)C(F)(F)C(F)(F)C(F)(F)C(F)(F)F)C(F)(F)C(F)(F)C(F)(F)C(F)(F)F : 312.6

Inquiry: // lookup Weight reduction temperature 5% for C[n+]1ccn(CCC(F)(F)C(F)(F)C(F)(F)C(F)(F)C(F)(F)C(F)(F)C(F)(F)C(F)(F)F)c1.O=S(=O)([N-]S(=O)(=O)C(F)(F)C(F)(F)C(F)(F)C(F)(F)F)C(F)(F)C(F)(F)C(F)(F)C(F)(F)F
Reply text: 350.3

Inquiry: // lookup Weight reduction temperature 5% for CCCCCCCCCCCCCCCCCCC1CCCCN2CCCN=C12.O=S(=O)(NS(=O)(=O)C(F)(F)C(F)(F)C(F)(F)C(F)(F)F)C(F)(F)C(F)(F)C(F)(F)C(F)(F)F
Reply text: 352.9

Inquiry: // lookup Weight reduction temperature 5% for CCCCCCCCCCCCCCCCCC[n+]1ccn(CCC(F)(F)C(F)(F)C(F)(F)C(F)(F)C(F)(F)C(F)(F)C(F)(F)C(F)(F)F)c1.O=S(=O)([N-]S(=O)(=O)C(F)(F)C(F)(F)C(F)(F)C(F)(F)F)C(F)(F)C(F)(F)C(F)(F)C(F)(F)F
Reply text: 335.8

====

test: Solubility test of ionic liquid in fluorine-based solvent VERTREL XF; conditions: VERTREL XF [CF3(CHF)2CF2CF3], 25° C., ultrasonic 5 minutes, left 1 day, visual
METRIC NAME: Solubility to fluorine-based solvent

CCCCCCCCCCCCCCCCCC[N+]1=C2CCCCCN2CCC1.O=S(=O)([O-])C(F)(F)F [Ex. 7A] : 0.5% by mass or greater

// moving on: another record for Solubility to fluorine-based solvent
Inquiry: // lookup Solubility to fluorine-based solvent for C[n+]1ccn(CCC(F)(F)C(F)(F)C(F)(F)C(F)(F)C(F)(F)C(F)(F)C(F)(F)C(F)(F)F)c1.O=S(=O)([N-]S(=O)(=O)C(F)(F)C(F)(F)C(F)(F)C(F)(F)F)C(F)(F)C(F)(F)C(F)(F)C(F)(F)F [Ex. 9A]
Reply text: 0.5% by mass or greater

====

In this section, each of the compounds is paired with its reported Weight reduction temperature 5%.
assay: Thermal stability measurement (TG/DTA weight reduction temperature); conditions: TG/DTA, air 200 mL/min, 10° C./min, 30° C. to 600° C.
Give the value in °C but do not write °C after it.

Worked cases, Weight reduction temperature 5% given:
CCCCCCCCCCCCCCCCCC[n+]1ccn(CCCC)c1.O=S(=O)([N-]S(=O)(=O)C(F)(F)C(F)(F)C(F)(F)C(F)(F)F)C(F)(F)C(F)(F)C(F)(F)C(F)(F)F [Comp. Ex. 8A, reference compound] : 347.2
CCCCCCCCCCCCCCCCCC[N+]1=C2CCCCCN2CCC1.O=S(=O)([O-])C(F)(F)F : 319.2
CCCCCCCCCCCCCCCCCC[N+]1=C2CCCCCN2CCC1.O=S(=O)([N-]S(=O)(=O)C(F)(F)C(F)(F)C(F)(F)C(F)(F)F)C(F)(F)C(F)(F)C(F)(F)C(F)(F)F : 341.1

Inquiry: // lookup Weight reduction temperature 5% for CCCCCCCCCCCCCCCCCCn1cc[n+](CCC[n+]2ccn(CCCCCCCCCCCCCCCCCC)c2)c1.O=S(=O)([N-]S(=O)(=O)C(F)(F)C(F)(F)C(F)(F)C(F)(F)F)C(F)(F)C(F)(F)C(F)(F)C(F)(F)F.O=S(=O)([N-]S(=O)(=O)C(F)(F)C(F)(F)C(F)(F)C(F)(F)F)C(F)(F)C(F)(F)C(F)(F)C(F)(F)F
Reply text: 352.3

Inquiry: // lookup Weight reduction temperature 5% for CCCCCCCCCCCCCCCCCC[N+]1(CCCC)CCCC1.O=S(=O)([N-]S(=O)(=O)C(F)(F)C(F)(F)C(F)(F)C(F)(F)F)C(F)(F)C(F)(F)C(F)(F)C(F)(F)F
Reply text: 331.4
